- SYSTEM UNDER TEST: ALK (Homo sapiens, UniProt Q9UM73)
- Sequence (Q9UM73 whole entry): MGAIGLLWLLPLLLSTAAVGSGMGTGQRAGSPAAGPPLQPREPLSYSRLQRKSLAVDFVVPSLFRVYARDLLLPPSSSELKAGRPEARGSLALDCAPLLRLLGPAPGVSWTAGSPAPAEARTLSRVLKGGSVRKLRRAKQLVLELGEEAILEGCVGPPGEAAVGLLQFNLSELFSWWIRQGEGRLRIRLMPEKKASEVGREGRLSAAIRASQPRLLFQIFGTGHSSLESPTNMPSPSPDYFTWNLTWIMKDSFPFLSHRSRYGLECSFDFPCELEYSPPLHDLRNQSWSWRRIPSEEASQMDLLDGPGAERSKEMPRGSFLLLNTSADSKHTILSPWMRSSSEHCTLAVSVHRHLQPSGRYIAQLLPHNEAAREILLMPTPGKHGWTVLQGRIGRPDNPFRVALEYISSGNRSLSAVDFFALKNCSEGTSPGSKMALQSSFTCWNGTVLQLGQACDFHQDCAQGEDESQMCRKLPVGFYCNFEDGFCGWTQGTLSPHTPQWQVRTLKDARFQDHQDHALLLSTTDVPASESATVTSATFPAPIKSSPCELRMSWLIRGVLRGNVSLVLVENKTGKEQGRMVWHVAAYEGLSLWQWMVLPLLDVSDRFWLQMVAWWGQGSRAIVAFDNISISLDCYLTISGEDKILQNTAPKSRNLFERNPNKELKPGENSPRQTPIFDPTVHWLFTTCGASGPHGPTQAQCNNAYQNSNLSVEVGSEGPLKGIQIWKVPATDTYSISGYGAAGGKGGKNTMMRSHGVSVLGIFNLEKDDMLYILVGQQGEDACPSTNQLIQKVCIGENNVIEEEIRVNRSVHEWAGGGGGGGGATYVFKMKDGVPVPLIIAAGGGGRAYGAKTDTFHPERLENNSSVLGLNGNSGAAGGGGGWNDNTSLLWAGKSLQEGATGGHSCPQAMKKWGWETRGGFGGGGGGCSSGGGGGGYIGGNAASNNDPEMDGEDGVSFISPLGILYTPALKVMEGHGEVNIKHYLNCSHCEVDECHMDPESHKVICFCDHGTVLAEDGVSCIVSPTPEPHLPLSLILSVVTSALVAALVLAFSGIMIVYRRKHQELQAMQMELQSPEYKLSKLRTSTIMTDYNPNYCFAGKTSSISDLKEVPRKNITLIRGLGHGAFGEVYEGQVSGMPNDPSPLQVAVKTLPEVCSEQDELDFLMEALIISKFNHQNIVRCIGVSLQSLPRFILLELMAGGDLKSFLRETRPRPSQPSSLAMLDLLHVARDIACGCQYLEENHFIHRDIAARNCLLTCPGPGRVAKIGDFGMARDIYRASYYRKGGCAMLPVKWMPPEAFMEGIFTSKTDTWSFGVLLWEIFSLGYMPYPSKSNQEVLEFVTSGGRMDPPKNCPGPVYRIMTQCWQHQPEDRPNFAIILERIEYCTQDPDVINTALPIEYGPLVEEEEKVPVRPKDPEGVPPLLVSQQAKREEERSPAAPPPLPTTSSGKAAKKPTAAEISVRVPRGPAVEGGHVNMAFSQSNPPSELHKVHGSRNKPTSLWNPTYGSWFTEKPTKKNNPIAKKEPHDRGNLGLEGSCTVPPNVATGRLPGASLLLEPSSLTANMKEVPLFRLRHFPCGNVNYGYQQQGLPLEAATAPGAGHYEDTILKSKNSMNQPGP
pIC50: −log10 of the molar value.
MEASURED QUANTITY: pIC50

The measured pIC50 that CC(C)CCN[C@@H]1CCc2cc(O)c(N3CC(=O)NS3(=O)=O)c(F)c2C1 showed for ALK (Homo sapiens, UniProt Q9UM73) is < 5.00

---

- SYSTEM UNDER TEST: Blk (Homo sapiens, UniProt P51451)
- Sequence (P51451 whole entry): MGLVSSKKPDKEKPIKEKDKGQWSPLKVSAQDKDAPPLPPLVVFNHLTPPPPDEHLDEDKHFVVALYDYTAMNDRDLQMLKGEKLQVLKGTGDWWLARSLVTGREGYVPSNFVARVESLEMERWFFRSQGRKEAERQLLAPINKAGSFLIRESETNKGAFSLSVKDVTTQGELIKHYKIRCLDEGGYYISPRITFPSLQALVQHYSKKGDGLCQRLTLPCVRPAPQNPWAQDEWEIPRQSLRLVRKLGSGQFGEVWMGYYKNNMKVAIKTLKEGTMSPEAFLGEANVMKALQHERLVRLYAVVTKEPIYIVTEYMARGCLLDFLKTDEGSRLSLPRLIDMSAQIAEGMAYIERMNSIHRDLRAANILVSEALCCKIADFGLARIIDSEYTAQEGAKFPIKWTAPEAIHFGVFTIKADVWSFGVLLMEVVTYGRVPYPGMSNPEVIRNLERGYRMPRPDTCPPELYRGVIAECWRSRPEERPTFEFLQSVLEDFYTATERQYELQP
MEASURED QUANTITY: IC50

The measured IC50 that CC(C)CCN[C@@H]1CCc2cc(O)c(N3CC(=O)NS3(=O)=O)c(F)c2C1 showed for Blk (Homo sapiens, UniProt P51451) is > 10 µM
